Test system: NCI-H226 lung
Assay: NCI-60 one-dose screen, 48 h (100 = growth as untreated, 0 = no growth, -100 = all killed)
Details: 10 µM unless noted
Compounds without any hit were thinned out: in the full panel of roughly 83,000, 20% have a hit.
growth overview
measured property: growth (%)

- structure as smiles: "COc1ccc(-c2nn(Cc3ccccc3)c3c2-c2oncc2CC3)cc1OC"
  unit: "%"
  reading: 131
- structure as smiles: "CC[C@@]12C=CCN3CC[C@]4(c5cc(NC(=O)COc6cc(OCC(=O)Nc7cc8c(cc7OC)N(C)[C@H]7[C@@](O)(C(=O)OC)[C@H](OC(C)=O)[C@]9(CC)C=CCN%10CC[C@]87[C@@H]%109)cc7oc(-c8ccccc8)cc(=O)c67)c(OC)cc5N(C)[C@@H]4[C@](O)(C(=O)OC)[C@H]1OC(C)=O)[C@H]32"
  unit: "%"
  reading: 23.7
- structure as smiles: "CN1CCN(c2cc(F)c(NC3=C(Cl)C(=O)c4ncccc4C3=O)c(F)c2)CC1"
  unit: "%"
  reading: 85.3
